measured target: Cyclin-dependent kinase 2 (Homo sapiens, UniProt P24941)
The threshold is 80 µM. Values of IC50 beneath it are tagged class 1; values meeting or exceeding it are tagged class 0.

These solved cases illustrate the format of a correct answer.
## Input Just wondering, is IC50 of COc1ccccc1Nc1cc(Nc2ccc(OCC(O)CN(C)C)cc2)ncn1 (stereo not drawn) below 80 µM?
## Output class 0

## Input Just wondering, is IC50 of CN(C)CC(O)COc1ccc(Nc2cc(Nc3cc(Cl)ccc3Cl)ncn2)cc1 (stereo not drawn) below 80 µM?
## Output class 1

## Input Just wondering, is IC50 of CN(C)CC(O)COc1ccc(Nc2cc(Nc3ccc(F)cc3F)ncn2)cc1 (stereo not drawn) below 80 µM?
## Output class 0

## Input Just wondering, is IC50 of CN(C)CC(O)COc1ccc(Nc2cc(Nc3ccccc3Cl)ncn2)cc1 (stereo not drawn) below 80 µM?
## Output class 0

Attention now shifts to the item below.
## Input Just wondering, is IC50 of CN(C)CC(O)COc1ccc(Nc2cc(Nc3ccccc3)ncn2)cc1 (stereo not drawn) below 80 µM?
## Output class 0

====

Could you please report measured pIC50 for the items listed next?
measured target: Cyclin-dependent kinase 2 (Homo sapiens, UniProt P24941)
One number for each entry, as −log10 of the molar value.

## Input Request the reported pIC50 associated with Cc1ccc(N(CC#N)c2cc(Nc3ccc(OCC(O)CN(C)C)cc3)ncn2)c(Br)c1 (stereo not drawn)
## Output 5.52

Proceed to the following item.
## Input Request the reported pIC50 associated with CN(C)CC(O)COc1ccc(Nc2cc(N(CC#N)c3cc(Cl)ccc3Cl)ncn2)cc1 (stereo not drawn)
## Output 6.00
